Every entry's value here was drawn from PubChem BioAssay AID1919002.

test system: 743489-274-T-PDC complex spheroid growth; experiment: Anticancer human tumor 743489-274-T-PDC patient-derived renal cell carcinoma cell line growth inhibition [AhR]; conditions: second compound 0.1 µM; first compound 10 µM; stronger effect = lower value;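 further: spheroids exposed to agents for 7 days before readout; 100% = DMSO vehicle control wells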
measurement kind: viability, T/C (%)

1. NS(=O)(=O)OCC1CC(n2ccc3c(NC4CCc5ccccc54)ncnc32)CC1O (stereo unspecified) + Cc1ccccc1N=Nc1ccc(NC(=O)c2ccnn2C)c(C)c1 | 140
2. Nc1ccn(C2OC(CO)C(O)C2(F)F)c(=O)n1 (stereo unspecified) + Cc1ccccc1N=Nc1ccc(NC(=O)c2ccnn2C)c(C)c1 | 59.1
3. CC1(C)CCC(CN2CCN(c3ccc(C(=O)NS(=O)(=O)c4ccc(NCC5CCOCC5)c([N+](=O)[O-])c4)c(Oc4cnc5[nH]ccc5c4)c3)CC2)=C(c2ccc(Cl)cc2)C1 + CC(CO)NC(=O)c1cc(-c2ccc(Cl)cc2)nn(-c2cnn(C)c2)c1=O | 96.3
4. COc1cc(Nc2ncc3c(n2)-c2ccc(Cl)cc2C(c2c(F)cccc2OC)=NC3)ccc1C(=O)O + CC(CO)NC(=O)c1cc(-c2ccc(Cl)cc2)nn(-c2cnn(C)c2)c1=O | 88.9
5. O=C(C=Cc1cccc(S(=O)(=O)Nc2ccccc2)c1)NO + CC(CO)NC(=O)c1cc(-c2ccc(Cl)cc2)nn(-c2cnn(C)c2)c1=O | 47.1
6. O=C(C=Cc1cccc(S(=O)(=O)Nc2ccccc2)c1)NO + Cc1cncc(-c2nc(NCCc3c[nH]c4ccccc34)c3ncn(C(C)C)c3n2)c1 | 51.4
